- System under test: UniProt:P06276
- Assay text: Anticholinesterase activity, modified colorimetric Ellman method
- Type: biochemical
- Condition notes: read-out: BChE % inhibition
Property: inhibition at 100 µM (%)
Reply with just the number (in %).

COc1ccc(C(=O)C=Cc2ccc(NC(=O)CN3CCN(CCCN(C)C)CC3)cc2)cc1OC yielded inhibition at 100 µM of 29

COc1ccc(C(=O)C=Cc2ccc(NC(=O)CN3CCN(S(C)(=O)=O)CC3)cc2)cc1OC yielded inhibition at 100 µM of 33.3

C#CCN1CCN(CC(=O)Nc2ccc(C=CC(=O)c3ccc(OC)c(OC)c3)cc2)CC1 yielded inhibition at 100 µM of 21.9

COc1ccc(C(=O)C=Cc2ccc(NC(=O)CN3CCN(C)CC3)cc2)cc1OC yielded inhibition at 100 µM of 24.6

COc1ccc(C(=O)C=Cc2ccc(NC(=O)CN3CCN(CCCO)CC3)cc2)cc1OC yielded inhibition at 100 µM of 23.6

* * *

- System under test: hMAO A (Homo sapiens)
- Sequence (P21397 whole entry): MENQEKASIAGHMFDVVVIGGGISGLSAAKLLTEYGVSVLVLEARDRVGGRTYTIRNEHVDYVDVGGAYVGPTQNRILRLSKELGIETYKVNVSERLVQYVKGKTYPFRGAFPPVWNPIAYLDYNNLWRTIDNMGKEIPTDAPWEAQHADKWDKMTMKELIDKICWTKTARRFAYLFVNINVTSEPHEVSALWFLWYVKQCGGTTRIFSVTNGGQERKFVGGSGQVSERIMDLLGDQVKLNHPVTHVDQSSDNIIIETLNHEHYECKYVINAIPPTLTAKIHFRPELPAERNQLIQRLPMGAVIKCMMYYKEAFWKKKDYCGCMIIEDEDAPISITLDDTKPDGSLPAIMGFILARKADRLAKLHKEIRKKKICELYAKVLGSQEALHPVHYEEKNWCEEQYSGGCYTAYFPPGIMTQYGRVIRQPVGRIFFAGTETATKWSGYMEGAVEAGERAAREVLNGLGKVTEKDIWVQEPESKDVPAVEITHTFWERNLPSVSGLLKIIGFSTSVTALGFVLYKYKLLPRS
- Assay text: MAO A inhibition, fluorometric method
- Assay type: biochemical
- Condition notes: read-out: MAO A % inhibition
Property: inhibition at 100 µM (%)
Reply with just the number (in %).

CCN1CCN(CC(=O)Nc2ccc(C=CC(=O)c3ccc(OC)c(OC)c3)cc2)CC1 yielded inhibition at 100 µM of 31.2

COc1ccc(C(=O)C=Cc2ccc(NC(=O)CN3CCN(CCN(C)C)CC3)cc2)cc1OC yielded inhibition at 100 µM of 32.3

C=CCN1CCN(CC(=O)Nc2ccc(C=CC(=O)c3ccc(OC)c(OC)c3)cc2)CC1 yielded inhibition at 100 µM of 41.4

COc1ccc(C(=O)C=Cc2ccc(NC(=O)CN3CCN(C(C)=O)CC3)cc2)cc1OC yielded inhibition at 100 µM of 39.4

COc1ccc(C(=O)C=Cc2ccc(NC(=O)CN3CCN(C=O)CC3)cc2)cc1OC yielded inhibition at 100 µM of 28.8

COc1ccc(C(=O)C=Cc2ccc(NC(=O)CN3CCN(S(C)(=O)=O)CC3)cc2)cc1OC yielded inhibition at 100 µM of 33.6

COc1ccc(C(=O)C=Cc2ccc(NC(=O)CN3CCN(CCCO)CC3)cc2)cc1OC yielded inhibition at 100 µM of 29.1

COCCN1CCN(CC(=O)Nc2ccc(C=CC(=O)c3ccc(OC)c(OC)c3)cc2)CC1 yielded inhibition at 100 µM of 28.6

* * *

- System under test: BChE (Homo sapiens)
- Sequence (P06276 29-602, species assumed): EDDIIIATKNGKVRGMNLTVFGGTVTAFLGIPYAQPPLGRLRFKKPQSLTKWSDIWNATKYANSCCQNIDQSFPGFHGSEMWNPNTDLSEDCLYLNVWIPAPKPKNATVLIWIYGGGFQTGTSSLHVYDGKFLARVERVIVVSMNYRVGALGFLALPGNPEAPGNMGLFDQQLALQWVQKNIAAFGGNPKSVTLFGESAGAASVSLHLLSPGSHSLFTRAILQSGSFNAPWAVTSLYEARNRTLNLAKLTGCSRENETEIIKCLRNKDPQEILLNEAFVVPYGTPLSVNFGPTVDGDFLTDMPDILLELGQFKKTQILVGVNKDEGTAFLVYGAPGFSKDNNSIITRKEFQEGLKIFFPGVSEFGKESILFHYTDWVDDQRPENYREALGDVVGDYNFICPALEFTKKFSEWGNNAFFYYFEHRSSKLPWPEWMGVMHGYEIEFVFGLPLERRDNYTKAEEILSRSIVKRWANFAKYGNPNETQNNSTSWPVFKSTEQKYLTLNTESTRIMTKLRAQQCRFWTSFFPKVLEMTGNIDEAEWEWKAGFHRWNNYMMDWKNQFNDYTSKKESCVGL
- Assay text: Anticholinesterase activity, modified colorimetric Ellman method
- Assay type: biochemical
- Condition notes: read-out: BChE % inhibition
Kindly state inhibition at 1000 µM for each of the entries shown.
Reply with just the number (in %).

COc1ccc(C(=O)C=Cc2ccc(NC(=O)CN3CCN(CCN(C)C)CC3)cc2)cc1OC yielded inhibition at 1000 µM of 42.7

COc1ccc(C(=O)C=Cc2ccc(NC(=O)CN3CCN(C=O)CC3)cc2)cc1OC yielded inhibition at 1000 µM of 31.7

COc1ccc(C(=O)C=Cc2ccc(NC(=O)CN3CCN(C4CCCC4)CC3)cc2)cc1OC yielded inhibition at 1000 µM of 41

COc1ccc(C(=O)C=Cc2ccc(NC(=O)CN3CCN(C(C)C)CC3)cc2)cc1OC yielded inhibition at 1000 µM of 46

COc1ccc(C(=O)C=Cc2ccc(NC(=O)CN3CCN(S(C)(=O)=O)CC3)cc2)cc1OC yielded inhibition at 1000 µM of 37.3

C=CCN1CCN(CC(=O)Nc2ccc(C=CC(=O)c3ccc(OC)c(OC)c3)cc2)CC1 yielded inhibition at 1000 µM of 40.3

C#CCN1CCN(CC(=O)Nc2ccc(C=CC(=O)c3ccc(OC)c(OC)c3)cc2)CC1 yielded inhibition at 1000 µM of 38

COc1ccc(C(=O)C=Cc2ccc(NC(=O)CN3CCN(C(C)=O)CC3)cc2)cc1OC yielded inhibition at 1000 µM of 36.4

COc1ccc(C(=O)C=Cc2ccc(NC(=O)CN3CCN(C)CC3)cc2)cc1OC yielded inhibition at 1000 µM of 42.5

CCN1CCN(CC(=O)Nc2ccc(C=CC(=O)c3ccc(OC)c(OC)c3)cc2)CC1 yielded inhibition at 1000 µM of 31.1

COc1ccc(C(=O)C=Cc2ccc(NC(=O)CN3CCN(CCCN(C)C)CC3)cc2)cc1OC yielded inhibition at 1000 µM of 46

COCCN1CCN(CC(=O)Nc2ccc(C=CC(=O)c3ccc(OC)c(OC)c3)cc2)CC1 yielded inhibition at 1000 µM of 30.2

COc1ccc(C(=O)C=Cc2ccc(NC(=O)CN3CCN(CCCO)CC3)cc2)cc1OC yielded inhibition at 1000 µM of 39.6
